measuredOn: Ribonuclease T1 (Aspergillus oryzae, UniProt P00651)
procedureText: Visual detection ribonuclease assay, cleavage of Substrate ODN by RNase T1
Assay type: biochemical
Set-up: key: +++ = maximum intensity; ++ = moderate intensity; + = faint but above background; − = negative (identical to background)
cond: RNase T1 10^−5 units/ml; visual inspection, UV excitation; Substrate 500 nM; 37° C. 60 minutes
readoutLabel: Sensitivity of Substrate ODN to Ribonuclease T1, relative signal intensity

Recorded results for 5 substances are shown here.
substance	measuredOn	result
5′ Fluorescein-AcgcA-Dabcyl 3′ (NACGCAN; 5' fluorescein and 3' Dabcyl labels, nucleotide chemistry not given here) [SEQ ID NO:13]	Ribonuclease T1 (Aspergillus oryzae, UniProt P00651)	−
5′ Fluorescein-AgcuAA-Dabcyl 3′ (NAGCUAAN; 5' fluorescein and 3' Dabcyl labels, nucleotide chemistry not given here) [SEQ ID NO:11]	Ribonuclease T1 (Aspergillus oryzae, UniProt P00651)	−
5′ Fluorescein-AguAA-Dabcyl 3′ (NAGUAAN; 5' fluorescein and 3' Dabcyl labels, nucleotide chemistry not given here) [SEQ ID NO:7]	Ribonuclease T1 (Aspergillus oryzae, UniProt P00651)	−
5′ Fluorescein-AaggucA-QSY-7 3′ (NAAGGUCAN; 5' fluorescein and 3' QSY-7 labels, nucleotide chemistry not given here) [SEQ ID NO:28]	Ribonuclease T1 (Aspergillus oryzae, UniProt P00651)	++
5′ Fluorescein-AcguA-Dabcyl 3′ (NACGUAN; 5' fluorescein and 3' Dabcyl labels, nucleotide chemistry not given here) [SEQ ID NO:15]	Ribonuclease T1 (Aspergillus oryzae, UniProt P00651)	−

Enquiry: # return recorded Sensitivity of Substrate ODN to Ribonuclease T1, relative signal intensity for entry 5′ Fluorescein-AaugcA-QSY-7 3′ (NAAUGCAN; 5' fluorescein and 3' QSY-7 labels, nucleotide chemistry not given here) [SEQ ID NO:29]
Return: ++

* * *

measuredOn: Ribonuclease T1 (Aspergillus oryzae, UniProt P00651)
procedureText: Visual detection ribonuclease assay, cleavage of Substrate ODN by RNase T1
Assay type: biochemical
Design: key: +++ = maximum intensity; ++ = moderate intensity; + = faint but above background; − = negative (identical to background)
cond: RNase T1 10^−4 units/ml; visual inspection, UV excitation; Substrate 500 nM; 37° C. 60 minutes
readoutLabel: Sensitivity of Substrate ODN to Ribonuclease T1, relative signal intensity

substance	result
5′ Fluorescein-AAgAA-Dabcyl 3′ (NAAGAAN; 5' fluorescein and 3' Dabcyl labels, nucleotide chemistry not given here) [SEQ ID NO:4]	−
5′ Fluorescein-AauggcA-QSY-7 3′ (NAAUGGCAN; 5' fluorescein and 3' QSY-7 labels, nucleotide chemistry not given here) [SEQ ID NO:30]	+++
5′ Fluorescein-AcgcA-Dabcyl 3′ (NACGCAN; 5' fluorescein and 3' Dabcyl labels, nucleotide chemistry not given here) [SEQ ID NO:13]	++
5′ Fluorescein-AgcuaA-Dabcyl 3′ (NAGCUAAN; 5' fluorescein and 3' Dabcyl labels, nucleotide chemistry not given here) [SEQ ID NO:22]	+
5′ Fluorescein-AuagA-Dabcyl 3′ (NAUAGAN; 5' fluorescein and 3' Dabcyl labels, nucleotide chemistry not given here) [SEQ ID NO:16]	+++

Enquiry: Look up and report measured Sensitivity of Substrate ODN to Ribonuclease T1, relative signal intensity for this entry: 5′ Fluorescein-AAcAA-Dabcyl 3′ (NAACAAN; 5' fluorescein and 3' Dabcyl labels, nucleotide chemistry not given here) [SEQ ID NO:5]
Return: −

Enquiry: For the substance 5′ Fluorescein-AguAA-Dabcyl 3′ (NAGUAAN; 5' fluorescein and 3' Dabcyl labels, nucleotide chemistry not given here) [SEQ ID NO:7] , report Sensitivity of Substrate ODN to Ribonuclease T1, relative signal intensity.
Return: −

Enquiry: Consider the substance 5′ Fluorescein-AgucAA-Dabcyl 3′ (NAGUCAAN; 5' fluorescein and 3' Dabcyl labels, nucleotide chemistry not given here) [SEQ ID NO:10] and give its recorded Sensitivity of Substrate ODN to Ribonuclease T1, relative signal intensity.
Return: −

Enquiry: Fill in reported Sensitivity of Substrate ODN to Ribonuclease T1, relative signal intensity for this entry: 5′ Fluorescein-AcguA-Dabcyl 3′ (NACGUAN; 5' fluorescein and 3' Dabcyl labels, nucleotide chemistry not given here) [SEQ ID NO:15]
Return: +

Enquiry: Complete the entry with Sensitivity of Substrate ODN to Ribonuclease T1, relative signal intensity for 5′ Fluorescein-AagucA-Dabcyl 3′ (NAAGUCAN; 5' fluorescein and 3' Dabcyl labels, nucleotide chemistry not given here) [SEQ ID NO:24]
Return: +

* * *

measuredOn: Ribonuclease A (Bos taurus)
Sequence (P61823 27-150): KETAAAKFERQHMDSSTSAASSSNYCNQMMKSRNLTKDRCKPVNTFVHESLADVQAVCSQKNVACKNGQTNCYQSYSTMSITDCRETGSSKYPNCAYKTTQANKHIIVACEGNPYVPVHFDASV
procedureText: Visual detection ribonuclease assay, cleavage of Substrate ODN by RNase A
Assay type: biochemical, mammalian
Parameters: key: +++ = maximum intensity; ++ = moderate intensity; + = faint but above background; − = negative (identical to background)
cond: RNase A 10 pg/ml; visual inspection, UV excitation; Substrate 500 nM; 37° C. 60 minutes
readoutLabel: Sensitivity of Substrate ODN to Ribonuclease A, relative signal intensity

Sample answers from the record:
substance	result
5′ Fluorescein-AaugcA-QSY-7 3′ (NAAUGCAN; 5' fluorescein and 3' QSY-7 labels, nucleotide chemistry not given here) [SEQ ID NO:29]	+
5′ Fluorescein-AgucAA-Dabcyl 3′ (NAGUCAAN; 5' fluorescein and 3' Dabcyl labels, nucleotide chemistry not given here) [SEQ ID NO:10]	−
5′ Fluorescein-AgcuAA-Dabcyl 3′ (NAGCUAAN; 5' fluorescein and 3' Dabcyl labels, nucleotide chemistry not given here) [SEQ ID NO:11]	−
5′ Fluorescein-AgaAA-Dabcyl 3′ (NAGAAAN; 5' fluorescein and 3' Dabcyl labels, nucleotide chemistry not given here) [SEQ ID NO:9]	−
5′ Fluorescein-AagucA-QSY-7 3′ (NAAGUCAN; 5' fluorescein and 3' QSY-7 labels, nucleotide chemistry not given here) [SEQ ID NO:27]	+
5′ Fluorescein-AcggA-Dabcyl 3′ (NACGGAN; 5' fluorescein and 3' Dabcyl labels, nucleotide chemistry not given here) [SEQ ID NO:14]	−

Enquiry: Supply recorded Sensitivity of Substrate ODN to Ribonuclease A, relative signal intensity for 5′ Fluorescein-AgcuaA-Dabcyl 3′ (NAGCUAAN; 5' fluorescein and 3' Dabcyl labels, nucleotide chemistry not given here) [SEQ ID NO:22] here.
Return: −

* * *

measuredOn: T1, Ribonuclease T1 (Aspergillus oryzae, UniProt P00651)
T1 sequence (P00651 27-130): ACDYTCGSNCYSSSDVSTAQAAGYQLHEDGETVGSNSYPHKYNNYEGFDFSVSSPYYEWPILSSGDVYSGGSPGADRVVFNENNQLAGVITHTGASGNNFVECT
procedureText: Visual detection ribonuclease assay, cleavage of Substrate ODN by RNase T1
Assay type: biochemical
Set-up: key: +++ = maximum intensity; ++ = moderate intensity; + = faint but above background; − = negative (identical to background)
cond: RNase T1 10^−3 units/ml; visual inspection, UV excitation; Substrate 500 nM; 37° C. 60 minutes
readoutLabel: Sensitivity of Substrate ODN to Ribonuclease T1, relative signal intensity

Recorded results for 5 substances are shown here.
substance	result
5′ Fluorescein-AAuAA-Dabcyl 3′ (NAAUAAN; 5' fluorescein and 3' Dabcyl labels, nucleotide chemistry not given here) [SEQ ID NO:3]	−
5′ Fluorescein-AgaAA-Dabcyl 3′ (NAGAAAN; 5' fluorescein and 3' Dabcyl labels, nucleotide chemistry not given here) [SEQ ID NO:9]	+
5′ Fluorescein-AcuaA-Dabcyl 3′ (NACUAAN; 5' fluorescein and 3' Dabcyl labels, nucleotide chemistry not given here) [SEQ ID NO:17]	−
5′ Fluorescein-AAaAA-Dabcyl 3′ (NAAAAAN; 5' fluorescein and 3' Dabcyl labels, nucleotide chemistry not given here) [SEQ ID NO:6]	−
5′ Fluorescein-AcgaA-Dabcyl 3′ (NACGAAN; 5' fluorescein and 3' Dabcyl labels, nucleotide chemistry not given here) [SEQ ID NO:12]	+++

Enquiry: Query Sensitivity of Substrate ODN to Ribonuclease T1, relative signal intensity for 5′ Fluorescein-AgcuAA-Dabcyl 3′ (NAGCUAAN; 5' fluorescein and 3' Dabcyl labels, nucleotide chemistry not given here) [SEQ ID NO:11]
Return: +

Enquiry: Name the recorded Sensitivity of Substrate ODN to Ribonuclease T1, relative signal intensity of the substance listed here: 5′ Fluorescein-AgucaA-Dabcyl 3′ (NAGUCAAN; 5' fluorescein and 3' Dabcyl labels, nucleotide chemistry not given here) [SEQ ID NO:23]
Return: ++

* * *

measuredOn: T1, Ribonuclease T1 (Aspergillus oryzae, UniProt P00651)
T1 sequence (P00651 27-130): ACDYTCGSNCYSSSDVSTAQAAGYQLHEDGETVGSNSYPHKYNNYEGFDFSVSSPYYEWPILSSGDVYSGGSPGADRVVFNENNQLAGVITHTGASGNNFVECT
procedureText: Visual detection ribonuclease assay, cleavage of Substrate ODN by RNase T1
Format: biochemical
Parameters: key: +++ = maximum intensity; ++ = moderate intensity; + = faint but above background; − = negative (identical to background)
cond: RNase T1 10^−5 units/ml; visual inspection, UV excitation; Substrate 500 nM; 37° C. 60 minutes
readoutLabel: Sensitivity of Substrate ODN to Ribonuclease T1, relative signal intensity

Field: example entries. Status: answers known.
substance	result
5′ Fluorescein-AAgAA-Dabcyl 3′ (NAAGAAN; 5' fluorescein and 3' Dabcyl labels, nucleotide chemistry not given here) [SEQ ID NO:4]	−
5′ Fluorescein-AacAA-Dabcyl 3′ (NAACAAN; 5' fluorescein and 3' Dabcyl labels, nucleotide chemistry not given here) [SEQ ID NO:8]	−
5′ Fluorescein-AAuAA-Dabcyl 3′ (NAAUAAN; 5' fluorescein and 3' Dabcyl labels, nucleotide chemistry not given here) [SEQ ID NO:3]	−
5′ Fluorescein-AgcuaA-Dabcyl 3′ (NAGCUAAN; 5' fluorescein and 3' Dabcyl labels, nucleotide chemistry not given here) [SEQ ID NO:22]	−
5′ Fluorescein-AauggcA-QSY-7 3′ (NAAUGGCAN; 5' fluorescein and 3' QSY-7 labels, nucleotide chemistry not given here) [SEQ ID NO:30]	+++
5′ Fluorescein-AuagA-Dabcyl 3′ (NAUAGAN; 5' fluorescein and 3' Dabcyl labels, nucleotide chemistry not given here) [SEQ ID NO:16]	−
5′ Fluorescein-AcgaA-Dabcyl 3′ (NACGAAN; 5' fluorescein and 3' Dabcyl labels, nucleotide chemistry not given here) [SEQ ID NO:12]	−
5′ Fluorescein-AcuaA-Dabcyl 3′ (NACUAAN; 5' fluorescein and 3' Dabcyl labels, nucleotide chemistry not given here) [SEQ ID NO:17]	−
5′ Fluorescein-AAaAA-Dabcyl 3′ (NAAAAAN; 5' fluorescein and 3' Dabcyl labels, nucleotide chemistry not given here) [SEQ ID NO:6]	−
5′ Fluorescein-AcggA-Dabcyl 3′ (NACGGAN; 5' fluorescein and 3' Dabcyl labels, nucleotide chemistry not given here) [SEQ ID NO:14]	+

Next item in the queue.
Enquiry: Report measured Sensitivity of Substrate ODN to Ribonuclease T1, relative signal intensity; entry is 5′ Fluorescein-AagucA-Dabcyl 3′ (NAAGUCAN; 5' fluorescein and 3' Dabcyl labels, nucleotide chemistry not given here) [SEQ ID NO:24]
Return: −

Hello, the source for this data is patent US7276337B2, in case you need it.
